Target: HLA-A*0301 (human)
# binding affinity ratio (IC50 of standard peptide / IC50 of test peptide) >= 0.004 gives rule met, anything below gives rule not met

LLVRYKCGK (modifications not checked) [HPV16 E1 277 …] = rule met
MMIEPPKLR (modifications not checked) [HPV16 E1 305 …] = rule not met
NMSQWIRFR (modifications not checked) [… (HPV18 E1, position 428, 9 amino acids)] = rule met
LLIRCLRCQK (modifications not checked) [HPV45 E6 peptide … (position 101, 10 amino acids)] = rule met

Does binding affinity ratio (IC50 of standard peptide / IC50 of test peptide) meet or surpass 0.004 for LIRCLRCQK (modifications not checked) [HPV45 E6 peptide … (position 102, 9 amino acids)] ?
rule met

Does binding affinity ratio (IC50 of standard peptide / IC50 of test peptide) meet or surpass 0.004 for NSNAAAFLK (modifications not checked) [… (HPV18 E1, position 393, 9 amino acids)] ?
rule met

Does binding affinity ratio (IC50 of standard peptide / IC50 of test peptide) meet or surpass 0.004 for CATMCKHYR (modifications not checked) [HPV18 E1 peptide … (position 412, 9 amino acids)] ?
rule not met

Does binding affinity ratio (IC50 of standard peptide / IC50 of test peptide) meet or surpass 0.004 for GLSFTDLVR (modifications not checked) [HPV18 E1 223 …] ?
rule not met
